Catalogue of melting point readings, one per entry.

- Compound: "Cc1ccc(C(=O)NCc2cn(Cc3cnc(C)nc3N)nn2)cc1 [Compound 45]"
  melting point: "132 to 133 °C"
- Compound: "Cc1ncc(Cn2nnc(COC(=O)c3cccc([N+](=O)[O-])c3)c2I)c(N)n1 [Compound 97]"
  melting point: "201 to 202 °C"
- Compound: "Cc1ncc(Cn2cc(COc3ccc([N+](=O)[O-])cc3Cl)nn2)c(N)n1 [Compound 15]"
  melting point: "194 to 196 °C"
- Compound: "Cc1ncc(Cn2cc(COC(=O)c3ccc([N+](=O)[O-])cc3Cl)nn2)c(N)n1 [Compound 42]"
  melting point: "129 to 130 °C"

---

Test system: Rice Sheath Blight Disease
Test: Microbicidal activity, spray then strip inoculation (Embodiment 8)
Assay Conditions: Oryza sativa, read-out: Rice Sheath Blight Disease Average inhibition rate (%)
Would you please tag the item true (1) when its pest or weed control at 500 µg/g is 60% or above, and false (0) when it is below?

- Compound: "Cc1ncc(Cn2cc(COC(=O)c3ccccc3Cl)nn2)c(N)n1"
  Answer Label: "false (0)"
- Compound: "Cc1ncc(Cn2cc(COC(=O)c3ccc(Cl)cc3)nn2)c(N)n1"
  Answer Label: "false (0)"
- Compound: "Cc1ncc(Cn2cc(COc3ccc(Cl)cc3)nn2)c(N)n1"
  Answer Label: "true (1)"
- Compound: "Cc1ncc(Cn2cc(COc3ccc(Cl)c(C)c3)nn2)c(N)n1"
  Answer Label: "true (1)"
- Compound: "COc1ccc(C(=CC(=O)N2CCOCC2)c2ccc(Cl)cc2)cc1OC [Dimethomorph, reference compound]"
  Answer Label: "true (1)"

---

Catalogue of melting point readings, one per entry.

- Compound: "Cc1ncc(Cn2cc(CNC(=O)c3cccc([N+](=O)[O-])c3)nn2)c(N)n1 [Compound 53]"
  melting point: "188 to 189 °C"
- Compound: "Cc1ncc(Cn2cc(CNC(=O)COc3ccc(Cl)cc3)nn2)c(N)n1 [Compound 71]"
  melting point: "124 to 125 °C"
- Compound: "Cc1ncc(Cn2nnc(COc3ccccc3[N+](=O)[O-])c2I)c(N)n1 [Compound 80]"
  melting point: "178 to 180 °C"
- Compound: "Cc1ncc(Cn2nnc(COC(=O)c3cccc(Cl)c3)c2I)c(N)n1 [Compound 90]"
  melting point: "185 to 187 °C"
- Compound: "Cc1ncc(Cn2cc(CNC(=O)COc3ccc([N+](=O)[O-])cc3)nn2)c(N)n1 [Compound 73]"
  melting point: "143 to 144 °C"
- Compound: "Cc1ncc(Cn2cc(COC(=O)c3cc([N+](=O)[O-])cc([N+](=O)[O-])c3)nn2)c(N)n1 [Compound 35]"
  melting point: "142 to 143 °C"
- Compound: "COC(=O)Cc1ccc(OCc2cn(Cc3cnc(C)nc3N)nn2)cc1 [Compound 9]"
  melting point: "142 to 143 °C"
- Compound: "Cc1ncc(Cn2nnc(COC(=O)c3ccccc3F)c2I)c(N)n1 [Compound 93]"
  melting point: "187 to 188 °C"

---

- Structure As Smiles: "Cc1ncc(Cn2cc(CNC(=O)COc3ccc(F)cc3Cl)nn2)c(N)n1"
  melting point: "125 to 126 °C"
- Structure As Smiles: "Cc1ccc(C(=O)OCc2nnn(Cc3cnc(C)nc3N)c2I)cc1"
  melting point: "200 to 201 °C"
- Structure As Smiles: "Cc1ncc(Cn2nnc(COc3ccc(C#N)cc3)c2I)c(N)n1"
  melting point: "199 to 201 °C"
- Structure As Smiles: "Cc1ncc(Cn2cc(COc3cccc(C)c3C)nn2)c(N)n1"
  melting point: "202 to 204 °C"
- Structure As Smiles: "Cc1ncc(Cn2cc(COC(=O)COc3ccc(C(C)(C)C)cc3)nn2)c(N)n1"
  melting point: "107 to 110 °C"

---

Test system: Rice Sheath Blight Disease (sheath and culm blight of rice)
Test: Spawn growth rate on agar plates (Embodiment 9)
Assay type: cell-based, Rhizoctonia solani
Assay Conditions: 48 h, Concentration 50 μg/g; Table 8
Catalogue of inhibition of growth at 50 µg/g readings, one per entry.

- Structure As Smiles: "Cc1ncc(Cn2nnc(COc3ccc(C#N)cc3)c2I)c(N)n1"
  Tgt: "Rice Sheath Blight Disease (sheath and culm blight of rice)"
  inhibition of growth at 50 µg/g [%]: 96
- Structure As Smiles: "Cc1ncc(Cn2nnc(COc3ccc(F)cc3Cl)c2I)c(N)n1"
  Tgt: "Rice Sheath Blight Disease (sheath and culm blight of rice)"
  inhibition of growth at 50 µg/g [%]: 72
- Structure As Smiles: "Cc1ncc(Cn2nnc(COc3ccc(F)cc3)c2I)c(N)n1"
  Tgt: "Rice Sheath Blight Disease (sheath and culm blight of rice)"
  inhibition of growth at 50 µg/g [%]: 100
- Structure As Smiles: "Cc1ncc(Cn2nnc(COc3ccc(Cl)cc3)c2I)c(N)n1"
  Tgt: "Rice Sheath Blight Disease (sheath and culm blight of rice)"
  inhibition of growth at 50 µg/g [%]: 98
- Structure As Smiles: "Cc1ncc(Cn2nnc(COc3ccccc3Cl)c2I)c(N)n1"
  Tgt: "Rice Sheath Blight Disease (sheath and culm blight of rice)"
  inhibition of growth at 50 µg/g [%]: 98
- Structure As Smiles: "Cc1ncc(Cn2nnc(COc3ccc(Cl)c(C)c3)c2I)c(N)n1"
  Tgt: "Rice Sheath Blight Disease (sheath and culm blight of rice)"
  inhibition of growth at 50 µg/g [%]: 61
- Structure As Smiles: "COc1ccc(OCc2nnn(Cc3cnc(C)nc3N)c2I)cc1"
  Tgt: "Rice Sheath Blight Disease (sheath and culm blight of rice)"
  inhibition of growth at 50 µg/g [%]: 94
- Structure As Smiles: "Cc1ncc(Cn2nnc(COc3ccc(Br)cc3)c2I)c(N)n1"
  Tgt: "Rice Sheath Blight Disease (sheath and culm blight of rice)"
  inhibition of growth at 50 µg/g [%]: 97
- Structure As Smiles: "Cc1ncc(Cn2nnc(COc3ccc(Cl)cc3C)c2I)c(N)n1"
  Tgt: "Rice Sheath Blight Disease (sheath and culm blight of rice)"
  inhibition of growth at 50 µg/g [%]: 69

---

Measurement Name: melting point

- Molecule: "Cc1ncc(Cn2cc(CNC(=O)c3ccccc3F)nn2)c(N)n1 [Compound 46]"
  Reported Measurement: "205 to 206 °C"
- Molecule: "Cc1ncc(Cn2cc(COC(=O)c3ccc(Cl)cc3)nn2)c(N)n1 [Compound 33]"
  Reported Measurement: "188 to 189 °C"
- Molecule: "Cc1ncc(Cn2cc(CNC(=O)COc3ccccc3Cl)nn2)c(N)n1 [Compound 69]"
  Reported Measurement: "201 to 202 °C"
- Molecule: "Cc1ncc(Cn2nnc(CNC(=O)c3ccc(F)cc3)c2I)c(N)n1 [Compound 104]"
  Reported Measurement: "217 to 219 °C"
- Molecule: "Cc1ncc(Cn2cc(CNC(=O)COc3cccc(C)c3C)nn2)c(N)n1 [Compound 77]"
  Reported Measurement: "169 to 170 °C"
- Molecule: "Cc1ncc(Cn2nnc(COc3cccc(C(F)(F)F)c3)c2I)c(N)n1 [Compound 81]"
  Reported Measurement: "146 to 148 °C"
- Molecule: "Cc1ncc(Cn2nnc(COc3ccc(Cl)c(C)c3)c2I)c(N)n1 [Compound 25]"
  Reported Measurement: "215 to 217 °C"
- Molecule: "Cc1ncc(Cn2cc(COC(=O)COc3ccc(Cl)cc3)nn2)c(N)n1 [Compound 56]"
  Reported Measurement: "152 to 153 °C"
- Molecule: "Cc1ncc(Cn2cc(COC(=O)c3cccc([N+](=O)[O-])c3)nn2)c(N)n1 [Compound 41]"
  Reported Measurement: "159 to 160 °C"

---

- Compound: "Cc1ncc(Cn2cc(CNC(=O)COc3ccc([N+](=O)[O-])cc3Cl)nn2)c(N)n1 [Compound 72]"
  melting point: "183 to 184 °C"
- Compound: "Cc1ncc(Cn2cc(COC(=O)COc3cc(Cl)c(Cl)c(Cl)c3)nn2)c(N)n1 [Compound 64]"
  melting point: "160 to 161 °C"
- Compound: "Cc1ncc(Cn2cc(COC(=O)c3cccc(Cl)c3)nn2)c(N)n1 [Compound 39]"
  melting point: "165 to 166 °C"
- Compound: "Cc1ncc(Cn2cc(COC(=O)COc3cccc(C)c3C)nn2)c(N)n1 [Compound 63]"
  melting point: "168 to 171 °C"

---

Test system: Rice Sheath Blight Disease (sheath and culm blight of rice)
Test: Spawn growth rate on agar plates (Embodiment 9)
Type: cell-based, Rhizoctonia solani
Assay Conditions: 48 h, Concentration 12.5 μg/g; Table 8

- Structure As Smiles: "Cc1ncc(Cn2nnc(COc3ccc(Cl)c(C)c3)c2I)c(N)n1"
  inhibition of growth at 12.5 µg/g / %: 0
- Structure As Smiles: "Cc1ncc(Cn2nnc(COc3ccc(Br)cc3)c2I)c(N)n1"
  inhibition of growth at 12.5 µg/g / %: 73
- Structure As Smiles: "COc1ccc(OCc2nnn(Cc3cnc(C)nc3N)c2I)cc1"
  inhibition of growth at 12.5 µg/g / %: 58
- Structure As Smiles: "Cc1ncc(Cn2nnc(COc3ccc(C#N)cc3)c2I)c(N)n1"
  inhibition of growth at 12.5 µg/g / %: 78
- Structure As Smiles: "Cc1ncc(Cn2nnc(COc3ccc(F)cc3Cl)c2I)c(N)n1"
  inhibition of growth at 12.5 µg/g / %: 0
- Structure As Smiles: "Cc1ncc(Cn2nnc(COc3ccccc3Cl)c2I)c(N)n1"
  inhibition of growth at 12.5 µg/g / %: 37
- Structure As Smiles: "Cc1ncc(Cn2nnc(COc3ccc(Cl)cc3)c2I)c(N)n1"
  inhibition of growth at 12.5 µg/g / %: 87
- Structure As Smiles: "Cc1ncc(Cn2nnc(COc3ccc(F)cc3)c2I)c(N)n1"
  inhibition of growth at 12.5 µg/g / %: 63
- Structure As Smiles: "Cc1ncc(Cn2nnc(COc3ccc(Cl)cc3C)c2I)c(N)n1"
  inhibition of growth at 12.5 µg/g / %: 33
